biological target: High affinity nerve growth factor receptor (Homo sapiens, UniProt P04629); further: in the data inactive means no Kd found up to 30 µM
Sequence (P04629 whole entry): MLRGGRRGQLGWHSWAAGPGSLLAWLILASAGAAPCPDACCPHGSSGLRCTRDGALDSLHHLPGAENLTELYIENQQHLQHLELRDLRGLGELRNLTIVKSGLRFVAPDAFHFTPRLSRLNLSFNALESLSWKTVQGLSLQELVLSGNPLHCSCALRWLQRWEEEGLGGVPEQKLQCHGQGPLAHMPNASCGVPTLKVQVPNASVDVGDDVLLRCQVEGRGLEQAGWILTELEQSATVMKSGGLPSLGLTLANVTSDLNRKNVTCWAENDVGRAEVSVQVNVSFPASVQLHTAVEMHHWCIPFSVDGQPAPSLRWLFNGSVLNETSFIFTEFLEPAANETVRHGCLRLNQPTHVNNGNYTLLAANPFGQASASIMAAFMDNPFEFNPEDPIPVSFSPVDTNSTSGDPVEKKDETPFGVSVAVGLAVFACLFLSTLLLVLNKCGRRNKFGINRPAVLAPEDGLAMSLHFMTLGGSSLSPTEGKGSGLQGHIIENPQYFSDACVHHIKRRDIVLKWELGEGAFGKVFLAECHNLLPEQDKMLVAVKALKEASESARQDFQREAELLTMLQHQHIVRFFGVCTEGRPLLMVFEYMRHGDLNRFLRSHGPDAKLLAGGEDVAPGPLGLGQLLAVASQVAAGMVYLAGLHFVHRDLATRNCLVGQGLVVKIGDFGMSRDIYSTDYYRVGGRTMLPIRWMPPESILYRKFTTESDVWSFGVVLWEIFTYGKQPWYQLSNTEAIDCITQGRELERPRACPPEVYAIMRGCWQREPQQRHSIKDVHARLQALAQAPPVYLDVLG
Active and inactive are the calls of the source.
Allowed answers: Y = active, N = inactive

{"COMPOUND": "O=C(O)[C@]1(Cc2cccc(Nc3nccs3)n2)CC[C@@H](Oc2cccc(Cl)c2F)CC1 [MK-5108]", "ASSAY_TARGET": "High affinity nerve growth factor receptor (Homo sapiens, UniProt P04629)", "ANSWER_LABEL": "N"}
{"COMPOUND": "CCN1CCN(Cc2ccc(-c3cc4c(N[C@H](C)c5ccccc5)ncnc4[nH]3)cc2)CC1 [AEE-788]", "ASSAY_TARGET": "High affinity nerve growth factor receptor (Homo sapiens, UniProt P04629)", "ANSWER_LABEL": "N"}
{"COMPOUND": "Cc1ccc(NC(=O)c2ccc(CN3CC[C@H](N(C)C)C3)c(C(F)(F)F)c2)cc1Nc1nccc(-c2cncnc2)n1 [BAFETINIB]", "ASSAY_TARGET": "High affinity nerve growth factor receptor (Homo sapiens, UniProt P04629)", "ANSWER_LABEL": "N"}

Short answer needed: outcome of this test for CN1N=C(N)c2cn([C@@H]3O[C@H](COP(=O)(O)O)[C@@H](O)[C@H]3O)c3ncnc1c23 [TRICIRIBINE PHOSPHATE] ?
N

Can you look up the reported call for CN1CCC(COc2cnc(-c3cccc(Cn4nc(-c5cccc(C#N)c5)ccc4=O)c3)nc2)CC1 [TEPOTINIB] for me?
N

Hello, I am checking results. What call was entered for Cc1ccc(-n2nc(C(C)(C)C)cc2NC(=O)NCc2cc(F)ccc2Oc2ccc3c(cnn3CCO)c2)cc1 [PEXMETINIB] ?
Y

Given Cc1cc([C@@H](C)Nc2ccccc2C(=O)O)c2nc(N3CCOCC3)cc(=O)n2c1 [AZD-6482] , state the outcome it received in this test.
N

###

molecular target: General transcription and DNA repair factor IIH helicase subunit XPD (Homo sapiens, UniProt P18074); further: in the data inactive means no Kd found up to 30 µM
Sequence (P18074 whole entry): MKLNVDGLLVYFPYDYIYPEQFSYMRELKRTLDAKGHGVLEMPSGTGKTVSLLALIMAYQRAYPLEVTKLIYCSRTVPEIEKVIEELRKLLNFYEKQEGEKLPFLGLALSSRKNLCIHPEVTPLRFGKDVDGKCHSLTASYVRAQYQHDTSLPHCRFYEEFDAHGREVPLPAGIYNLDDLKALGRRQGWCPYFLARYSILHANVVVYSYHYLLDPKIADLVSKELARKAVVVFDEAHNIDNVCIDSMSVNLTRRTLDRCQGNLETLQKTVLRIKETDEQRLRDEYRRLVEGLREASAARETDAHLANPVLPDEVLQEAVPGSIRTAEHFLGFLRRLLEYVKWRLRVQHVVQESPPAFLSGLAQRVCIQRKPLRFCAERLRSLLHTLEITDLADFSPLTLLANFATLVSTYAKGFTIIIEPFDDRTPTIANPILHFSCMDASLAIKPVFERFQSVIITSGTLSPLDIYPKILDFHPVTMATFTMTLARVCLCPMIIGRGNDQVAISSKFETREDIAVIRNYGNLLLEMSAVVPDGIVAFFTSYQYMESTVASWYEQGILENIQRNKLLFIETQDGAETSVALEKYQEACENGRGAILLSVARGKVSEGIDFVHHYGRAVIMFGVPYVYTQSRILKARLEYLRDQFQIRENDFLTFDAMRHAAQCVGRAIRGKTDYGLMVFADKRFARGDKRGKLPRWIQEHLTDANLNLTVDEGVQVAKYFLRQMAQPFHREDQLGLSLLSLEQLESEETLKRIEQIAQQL
Calls of active or inactive are those of the source.
Outcome (select one): y (active), n (inactive)

Hi team, can someone confirm the assay call for "CC[C@@H]1C(=O)N(C)c2cnc(Nc3ccc(C(=O)N[C@H]4CC[C@H](N5CCN(CC6CC6)CC5)CC4)cc3OC)nc2N1C(C)C" ?
n

Please share the test call associated with "CC[C@H](Nc1ncnc2[nH]cnc12)c1nc2cccc(F)c2c(=O)n1-c1ccccc1" .
n

What was the test verdict on "CCc1cnn2c(NCc3ccc[n+]([O-])c3)cc(N3CCCC[C@H]3CCO)nc12" ?
y

Recorded test call requested for "CNC(=O)c1cc(Oc2ccc(NC(=O)Nc3ccc(Cl)c(C(F)(F)F)c3)c(F)c2)ccn1"
n

###

Below are Kd values recorded for UniProtKB Q15746.
Sequence (Q15746 whole entry): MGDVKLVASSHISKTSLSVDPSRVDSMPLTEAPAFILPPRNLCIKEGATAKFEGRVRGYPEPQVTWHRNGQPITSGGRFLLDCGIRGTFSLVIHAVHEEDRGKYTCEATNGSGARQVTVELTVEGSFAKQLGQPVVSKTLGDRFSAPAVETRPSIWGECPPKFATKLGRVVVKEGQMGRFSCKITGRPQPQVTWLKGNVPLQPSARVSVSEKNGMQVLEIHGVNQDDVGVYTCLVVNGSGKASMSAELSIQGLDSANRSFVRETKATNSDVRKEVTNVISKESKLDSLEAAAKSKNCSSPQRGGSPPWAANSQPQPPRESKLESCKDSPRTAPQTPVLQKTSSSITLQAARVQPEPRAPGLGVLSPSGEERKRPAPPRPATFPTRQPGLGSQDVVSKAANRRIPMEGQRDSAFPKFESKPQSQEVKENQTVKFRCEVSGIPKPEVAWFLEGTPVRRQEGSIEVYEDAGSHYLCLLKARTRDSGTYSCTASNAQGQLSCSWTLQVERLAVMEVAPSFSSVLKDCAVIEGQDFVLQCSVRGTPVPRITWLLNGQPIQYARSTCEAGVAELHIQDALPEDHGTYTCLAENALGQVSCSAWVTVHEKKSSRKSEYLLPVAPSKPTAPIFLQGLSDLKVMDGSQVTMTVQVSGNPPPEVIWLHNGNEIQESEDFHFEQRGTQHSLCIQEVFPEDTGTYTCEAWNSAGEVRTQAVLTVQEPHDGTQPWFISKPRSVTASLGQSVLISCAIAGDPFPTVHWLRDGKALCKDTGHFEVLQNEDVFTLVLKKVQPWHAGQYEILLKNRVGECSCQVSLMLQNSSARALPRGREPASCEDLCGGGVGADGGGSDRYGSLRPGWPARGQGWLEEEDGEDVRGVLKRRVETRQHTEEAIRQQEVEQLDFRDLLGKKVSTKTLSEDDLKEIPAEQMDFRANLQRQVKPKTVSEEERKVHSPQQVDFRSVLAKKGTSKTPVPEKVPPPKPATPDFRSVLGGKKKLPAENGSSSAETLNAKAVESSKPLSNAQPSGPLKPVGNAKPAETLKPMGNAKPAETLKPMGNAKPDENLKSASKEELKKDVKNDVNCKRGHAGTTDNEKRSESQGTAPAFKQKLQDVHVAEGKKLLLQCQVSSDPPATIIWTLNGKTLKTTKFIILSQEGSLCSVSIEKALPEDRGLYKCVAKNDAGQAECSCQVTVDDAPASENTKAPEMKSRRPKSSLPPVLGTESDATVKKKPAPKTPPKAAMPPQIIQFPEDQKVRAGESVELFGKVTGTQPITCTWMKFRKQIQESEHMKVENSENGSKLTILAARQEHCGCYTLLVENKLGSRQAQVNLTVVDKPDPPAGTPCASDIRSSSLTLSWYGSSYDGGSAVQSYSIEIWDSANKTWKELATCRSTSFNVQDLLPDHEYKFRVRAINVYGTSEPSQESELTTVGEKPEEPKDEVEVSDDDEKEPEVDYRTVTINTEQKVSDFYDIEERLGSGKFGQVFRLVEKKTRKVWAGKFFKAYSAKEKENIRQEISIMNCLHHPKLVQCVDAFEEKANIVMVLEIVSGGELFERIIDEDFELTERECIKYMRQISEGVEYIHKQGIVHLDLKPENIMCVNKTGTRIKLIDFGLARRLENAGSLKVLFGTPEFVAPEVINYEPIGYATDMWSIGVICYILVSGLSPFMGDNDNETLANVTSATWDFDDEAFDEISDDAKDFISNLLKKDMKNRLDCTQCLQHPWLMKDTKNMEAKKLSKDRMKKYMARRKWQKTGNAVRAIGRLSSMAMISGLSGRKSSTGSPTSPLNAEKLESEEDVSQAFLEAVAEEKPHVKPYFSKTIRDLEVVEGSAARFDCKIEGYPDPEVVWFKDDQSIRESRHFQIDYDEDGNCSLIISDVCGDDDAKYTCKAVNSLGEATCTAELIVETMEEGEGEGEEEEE
Activity calls are given as the source filed them.

The examples below pair each entry with its known result.
{"COMPOUND": "Cc1cc2c(F)c(Oc3ncnn4cc(OC[C@@H](C)OC(=O)[C@H](C)N)c(C)c34)ccc2[nH]1 [BRIVANIB ALANINATE]", "Kd": "> 30 µM (inactive)"}
{"COMPOUND": "CC(=O)Nc1cccc(-n2c(=O)n(C3CC3)c(=O)c3c(Nc4ccc(I)cc4F)n(C)c(=O)c(C)c32)c1", "Kd": "> 30 µM (inactive)"}
{"COMPOUND": "C[C@@H](c1ccc2nccn2c1)n1nnc2ncc(-c3cnn(C)c3)nc21", "Kd": "> 30 µM (inactive)"}

Next:
Any idea what its Kd is? The compound is "CN1CCC(CNc2ccc3ncc(-c4cccc(OC(F)(F)F)c4)n3n2)CC1"
> 30 µM (inactive)
